tested on: L1210; assay: MTT test (in vitro cytotoxicity); type: cell-based; conditions: Mus musculus, 72 hours
Readout: IC50
I'd appreciate it if you included the unit after the number.

Use the examples below as a reference point.
{"Compound": "COc1cccc(OC)c1/C=C/C(=O)c1c(OC)cccc1OC [Compound A, reference compound]", "IC50": "34 µM"}
{"Compound": "COc1cc(OC)c(/C=C/C(=O)c2c(OC)cc(OC)cc2OC)c(OC)c1 [Example 2, 2,2′,4,4′,6,6′-hexamethoxychalcone]", "IC50": "8.5 µM"}

Now look at this one.
Given the compound COc1cc(OC)c(/C=C/C(=O)c2c(OC)cccc2OC)c(OC)c1 [Example 1, 2,2′,4,6,6′-pentamethoxychalcone] , what is its reported IC50?
7 µM
